Recorded values, source ChEMBL document CHEMBL4627407.

Tested on: HCC1806
protocol-notes: Antiproliferative activity against human HCC1806 cells after 72 hrs by MTT assay
Type: functional, cell-based
condition-summary: HCC1806, 72 h
property-measured: IC50 (nM)

Field: example entries. Status: answers known.
C=C1C(=O)[C@]23[C@H](O)[C@H]1CC[C@H]2[C@]12CCCC(C)(C)[C@H]1[C@H](O)[C@@]3(O)OC2	2390
C=C1C(=O)[C@@]23C(=O)[C@@H]4OC[C@]5(C=CCC(C)(C)[C@@H]45)[C@@H]2CC[C@@H]1[C@H]3OC(=O)c1ccc2ncccc2c1	2670
C=C1C(=O)[C@@]23C(=O)[C@@H]4OC[C@]5(C=CCC(C)(C)[C@@H]45)[C@@H]2CC[C@@H]1[C@H]3O	970

P. C=C1C(=O)[C@]23[C@H](O)[C@H]1CC[C@H]2[C@]12CCCC(C)(C)[C@H]1C[C@@]3(O)OC2
Q. C=C1C(=O)[C@@]23C(=O)[C@@H]4OC[C@]5(C=CCC(C)(C)[C@@H]45)[C@@H]2CC[C@@H]1[C@H]3OC(=O)/C=C/c1ccc(F)cc1
Query block: Pick the one with the larger IC50: P vs Q Answer = label.
Result block: P
(P: 2920 nM, Q: 1630 nM)

a. C=C1C(=O)[C@@]23C(=O)[C@@H]4OC[C@]5(C=CCC(C)(C)[C@@H]45)[C@@H]2CC[C@@H]1[C@H]3OC(=O)c1ccccc1
b. C=C1C(=O)[C@@]23C(=O)[C@@H]4OC[C@]5(C=CCC(C)(C)[C@@H]45)[C@@H]2CC[C@@H]1[C@H]3OC(=O)c1ccc(Cl)cc1
c. C=C1C(=O)[C@@]23C(=O)[C@@H]4OC[C@]5(C=CCC(C)(C)[C@@H]45)[C@@H]2CC[C@@H]1[C@H]3OC(=O)/C=C/c1cncnc1
d. C=C1C(=O)[C@@]23C(=O)C[C@@H]4C(C)(C)CCC[C@@]4(COC(C)=O)[C@@H]2CC[C@@H]1[C@H]3OC(C)=O
e. C=C1C(=O)[C@@]23C(=O)[C@@H]4OC[C@]5(C=CCC(C)(C)[C@@H]45)[C@@H]2CC[C@@H]1[C@H]3OC(=O)/C=C/c1ccoc1
Query block: Put the molecules in ascending order of IC50. The reply should contain the labels ordered as requested.
Result block: c, e, b, d, a
(c: 770 nM, e: 1220 nM, b: 1930 nM, d: 2870 nM, a: 7120 nM)

A. C=C1C(=O)[C@@]23C(=O)[C@@H](OC(C)=O)[C@@H]4C(C)(C)CC=C[C@@]4(COC(C)=O)[C@@H]2CC[C@@H]1[C@H]3OC(C)=O
B. C=C1C(=O)[C@@]23C(=O)[C@@H]4OC[C@]5(C=CCC(C)(C)[C@@H]45)[C@@H]2CC[C@@H]1[C@H]3OC(=O)c1ccc(F)cc1
Query block: Look at A and B . Which one has the lower recorded IC50 number? Answer by stating the label of the chosen item.
Result block: B
(B: 1650 nM, A: 2420 nM)

1. C=C1C(=O)[C@@]23C(=O)[C@@H]4OC[C@]5(C=CCC(C)(C)[C@@H]45)[C@@H]2CC[C@@H]1[C@H]3OC(=O)/C=C/c1ccnc(OC)c1
2. C=C1C(=O)[C@@]23C(=O)[C@@H]4OC[C@]5(C=CCC(C)(C)[C@@H]45)[C@@H]2CC[C@@H]1[C@H]3OC(=O)c1ccccn1
3. C=C1C(=O)[C@@]23C(=O)[C@@H]4OC[C@]5(C=CCC(C)(C)[C@@H]45)[C@@H]2CC[C@@H]1[C@H]3OC(=O)/C=C/c1ccnc(F)c1
Query block: Parameters: sort_field (IC50), sort_dir (desc). // format: requested-order list of labels
Result block: 1, 3, 2
(1: 1930 nM, 3: 1120 nM, 2: 710 nM)

a. C=C1C(=O)[C@@]23C(=O)[C@@H]4OC[C@]5(C=CCC(C)(C)[C@@H]45)[C@@H]2CC[C@@H]1[C@H]3OC(=O)/C=C/c1ccc(OC)cc1
b. C=C1C(=O)[C@@]23C(=O)[C@@H]4OC[C@]5(C=CCC(C)(C)[C@@H]45)[C@@H]2CC[C@@H]1[C@H]3OC(=O)c1ccncn1
c. C=C1C(=O)[C@@]23C(=O)[C@@H]4OC[C@]5(C=CCC(C)(C)[C@@H]45)[C@@H]2CC[C@@H]1[C@H]3OC(=O)c1ccc(S(C)(=O)=O)cc1
Query block: List from greatest to least IC50. // respond by listing labels in the order requested
Result block: a, c, b
(a: 1960 nM, c: 1170 nM, b: 740 nM)

A. C=C1C(=O)[C@@]23C(=O)[C@@H]4OC[C@]5(C=CCC(C)(C)[C@@H]45)[C@@H]2CC[C@@H]1[C@H]3OC(=O)C1CCCCC1
B. C=C1C(=O)[C@@]23C(=O)[C@@H]4OC[C@]5(C=CCC(C)(C)[C@@H]45)[C@@H]2CC[C@@H]1[C@H]3OC(=O)/C=C/c1ccc2ccccc2c1
Query block: Param metric = IC50; output whichever of A , B has the minimum value. Refer to your chosen entry by its label in the reply.
Result block: B
(B: 1780 nM, A: 2580 nM)
